Kindly supply the reported GI50 values for the records listed here.
# Tested on: NCI-H522
# protocol summary: NCI tumour cell line growth inhibition, 48 h
Activity calls are given as the source filed them. Rule as the data show it: active = GI50 up to about 1.1 µM and inactive = higher.

-- ask API: value(readout= GI50, system= NCI-H522, query= `CC(C)(C)[C@H]1CCC2(OCCO2)[C@](O)(CCCO)C1` )
-- reply > 100 µM (inactive)

-- ask API: value(readout= GI50, system= NCI-H522, query= `N#C/C(=C\c1ccc2ccccc2c1)C(=O)c1ccccc1` )
-- reply > 92 µM (inactive)

-- ask API: value(readout= GI50, system= NCI-H522, query= Cc1ccc(C2=Nc3ccccc3SC(c3cccc([N+](=O)[O-])c3)C2)cc1 (stereo not given) )
-- reply 9.59 µM (inactive)

-- ask API: value(readout= GI50, system= NCI-H522, query= O/N=C1/C(=C/c2ccc3c(c2)OCO3)CCCC1C(NO)c1ccc2c(c1)OCO2 (stereo not given) )
-- reply 17.7 µM (inactive)

-- ask API: value(readout= GI50, system= NCI-H522, query= `CC[N+](CC)(CCNCC(N)=O)CC(N)=O` )
-- reply > 10 µM (inactive)

-- ask API: value(readout= GI50, system= NCI-H522, query= `NS(=O)(=O)c1ccc(NC(=S)N/C=C2\C(=O)Nc3ccccc3C2=O)cc1` )
-- reply > 100 µM (inactive)

-- ask API: value(readout= GI50, system= NCI-H522, query= COC(=O)C(CCC1CC(OC)N(C(=O)OCc2ccccc2)C1)/N=C/c1ccccc1 (stereo not given) )
-- reply 30.6 µM (inactive)

-- ask API: value(readout= GI50, system= NCI-H522, query= O=C(c1ccccc1)c1ccc2c(c1)nc1n2C(c2c(F)cccc2F)SC1 (stereo not given) )
-- reply 34.7 µM (inactive)

-- ask API: value(readout= GI50, system= NCI-H522, query= CC(C)C1CNC(=O)C2(/C=N/C(C(C)C)CNC(=O)C3(/C=N/1)CCCO3)CCCO2 (stereo not given) )
-- reply > 10 µM (inactive)

-- ask API: value(readout= GI50, system= NCI-H522, query= N=C(N)C1CN(CCCCCCCCCCN2CC(C(=N)N)C(O)=NC2=O)C(=O)N=C1O (stereo not given) )
-- reply > 10 µM (inactive)

----------
Kindly supply the reported GI50 values for the records listed here.
# Test system: Hs-578T
# protocol summary: NCI tumour cell line growth inhibition, 48 h
Activity calls are given as the source filed them. Cut-off read from the data, not from the text of the source: active = GI50 up to about 1.1 µM and inactive = higher. Starred links: 1 amine or outer side, 2 acyl side, 3 side chain; linkers in the order of their positions; H or OH if unused. Non-standard residues stand in square brackets, D forms with d. Residues, ends and D or L forms follow the SMILES beside them. *: point of attachment. X34 = CC(=O)N(C)SCC(N[*:1])C(=O)[*:2]; Cbz = O=C(OCc1ccccc1)*; Bn = c1ccc(C*)cc1; For = O=C*

-- ask Which GI50 is listed for `CCN(CC)C(=S)Nc1ccc(-c2cc3ccc(O)cc3oc2=O)cc1` ?
-- reply 25.4 µM (inactive)

-- ask Which GI50 is listed for C=CCC(C(=O)Nc1cccc2nc[nH]c12)C(=O)OCC (configuration not stated) ?
-- reply > 100 µM (inactive)

-- ask Which GI50 is listed for `O=C(O)c1cccc2cccc(-c3c4ccc(=O)cc-4oc4cc(O)ccc34)c12` ?
-- reply 93.1 µM (inactive)

-- ask Which GI50 is listed for `O=C(NCCCNC(=O)c1ccc2c(O)c(O)ccc2c1)c1ccc2c(O)c(O)ccc2c1` ?
-- reply 18.5 µM (inactive)

-- ask Which GI50 is listed for `CC(=O)c1ccc(O)c(CN(C2CCCCC2)C2CCCCC2)c1O` ?
-- reply > 100 µM (inactive)

-- ask Which GI50 is listed for CCOC(=O)C1C(C(C)C)C2(C#N)C(=N)OC1(C)C2(C#N)C#N (configuration not stated) ?
-- reply > 100 µM (inactive)

-- ask Which GI50 is listed for `O=C(COc1ccccc1)N(C(=O)N1CCN(c2ccccc2)CC1)S(=O)(=O)c1ccccc1` ?
-- reply > 100 µM (inactive)

-- ask Which GI50 is listed for COC(=O)C(CCC1CC(OC)N(C(=O)OCc2ccccc2)C1)/N=C/c1ccccc1 (configuration not stated) ?
-- reply > 100 µM (inactive)

-- ask Which GI50 is listed for `O=c1oc2ccccc2cc1P(=O)(O)O` ?
-- reply > 100 µM (inactive)

-- ask Which GI50 is listed for C[C@@](O)(/C=C/[C@H]1CC=CC(=O)O1)[C@@H](C[C@@H](O)\C=C/C=C\C=C\CO)OP(=O)(O)O [FOSTRIECIN SODIUM] ?
-- reply 5.51 µM (inactive)

-- ask Which GI50 is listed for `CC(=O)OC[C@@H](OC(C)=O)[C@@H](OC(C)=O)[C@H]1OC[C@@H]2C[C@H]([C@H]1OC(C)=O)N(Cc1ccccc1)O2` ?
-- reply > 100 µM (inactive)

-- ask Which GI50 is listed for `O=[N+]([O-])c1ccccc1S(=O)(=O)c1cc(Cl)cc2c1NCCC2` ?
-- reply 40.1 µM (inactive)

-- ask Which GI50 is listed for `O=S(=O)(O)c1ccc(/N=N/c2ccc(/N=N/c3c(O)ccc4ccccc34)c(S(=O)(=O)O)c2)cc1` ?
-- reply > 100 µM (inactive)

-- ask Which GI50 is listed for O=C(CC(NC(=O)C(F)(F)F)C(=O)O)OCc1ccccc1 (configuration not stated) ?
-- reply > 100 µM (inactive)

-- ask Which GI50 is listed for `Cc1ccc2c(n1)C(=O)c1ccccc1C2=O` ?
-- reply 72.3 µM (inactive)

-- ask Which GI50 is listed for `ON=C(CC(O)(C(F)(F)Cl)C(F)(F)Cl)CC(O)(C(F)(F)Cl)C(F)(F)Cl` ?
-- reply 3.52 µM (inactive)

-- ask Which GI50 is listed for CC(=O)N(C)SCC(NC(=O)C(Cc1ccccc1)NC(=O)OCc1ccccc1)C(=O)NC(Cc1ccccc1)C(=O)NC(Cc1cn(C=O)c2ccccc12)C(=O)NC(CCCCNC(=O)OCc1ccccc1)C(=O)NC(C(=O)NC(CSN(C)C(C)=O)C(=O)NC(C(N)=O)C(C)OCc1ccccc1)C(C)OCc1ccccc1 (configuration not stated) (Cbz-F[X34]FW(For)K(Cbz)T(Bn)[X34]T(Bn)-NH2; configuration not given here) ?
-- reply 8.63 µM (inactive)

----------
# Tested on: HCT-116
# protocol summary: NCI tumour cell line growth inhibition, 48 h
Activity calls are given as the source filed them. Rule as the data show it: active = GI50 up to about 1.1 µM and inactive = higher.
A correct response names exactly one class from active, inactive

-- ask # outcome recorded in this test, key = `N#Cc1c(-c2ccc(Cl)cc2)c2c([nH]c1=O)-c1cc([N+](=O)[O-])ccc1CCC2`
-- reply inactive

-- ask # outcome recorded in this test, key = CCCCCCCCOCC(COC(=O)CCCCCCC)OC(=O)CCCCCCC (stereo not given)
-- reply inactive

-- ask # outcome recorded in this test, key = O=C1c2ccccc2C(=O)c2c1ccc1c2N=C(c2ccc(F)cc2)CC(c2ccc(Cl)c(Cl)c2)N1 (stereo not given)
-- reply inactive

-- ask # outcome recorded in this test, key = CC(C)(CN1CCCCC1)C(=O)CC(SCCN)c1ccc(Cl)cc1 (stereo not given)
-- reply inactive

-- ask # outcome recorded in this test, key = `COc1ccc(CN(CCc2c[nH]c3ccccc23)Cc2ccc(OC)cc2)cc1`
-- reply active

----------
# Test system: KM12
# protocol summary: NCI tumour cell line growth inhibition, 48 h
Calls of active or inactive are those of the source. No stated cut-off is given here; in the data, active = GI50 up to about 1.1 µM and inactive = higher.
readout kind: GI50

-- ask Which GI50 is listed for O=[N+]([O-])c1ccc2c(c1)N=C1OC(c3c[nH]c4ccc(COc5ccccc5)cc34)C(O)=C1N2 (stereo not given) ?
-- reply > 100 µM (inactive)

-- ask Which GI50 is listed for `CC(C)(/C=N/O)/[N+]([O-])=C/c1ccccc1` ?
-- reply > 100 µM (inactive)

-- ask Which GI50 is listed for Nc1ccccc1C(=O)CC1OC(=O)c2ccccc21 (stereo not given) ?
-- reply 33.4 µM (inactive)

-- ask Which GI50 is listed for COC(=O)C1=CC[C@@H]2C(C(=O)O)=CO[C@@H](OC3OC(CO)C(O)C(O)C3O)[C@H]12 (stereo not given in full) ?
-- reply > 300 µM (inactive)

-- ask Which GI50 is listed for C[C@@](O)(/C=C/[C@H]1CC=CC(=O)O1)[C@@H](C[C@@H](O)\C=C/C=C\C=C\CO)OP(=O)(O)O [FOSTRIECIN SODIUM] ?
-- reply 6.08 µM (inactive)

----------
# Tested on: SW-620
# protocol summary: NCI tumour cell line growth inhibition, 48 h
Calls of active or inactive are those of the source. Cut-off read from the data, not from the text of the source: active = GI50 up to about 1.1 µM and inactive = higher.
A correct response names exactly one class from YES for active, NO for inactive

-- ask # outcome recorded in this test, key = Cc1nc2ccccc2n1COC(Cn1ccnc1)c1ccc(Cl)cc1Cl (stereo not drawn)
-- reply NO

-- ask # outcome recorded in this test, key = CC(=O)SSC1(Cl)C(C)(C)C(Cl)(SSC(C)=O)C1(C)C (stereo not drawn)
-- reply NO

-- ask # outcome recorded in this test, key = O=C1/C(=C/C=C/c2ccccc2)N=C(c2ccccc2)N1C1Nc2cc3c(cc2S1)NC(N1C(=O)/C(=C/C=C/c2ccccc2)N=C1c1ccccc1)S3 (stereo not drawn)
-- reply NO

-- ask # outcome recorded in this test, key = CCC1C[N+]23CCc4c([nH]c5ccccc45)C2CC1CC3 (stereo not drawn)
-- reply NO

-- ask # outcome recorded in this test, key = CCCCCCCCOCC(COC(=O)CCCCCCC)OC(=O)CCCCCCC (stereo not drawn)
-- reply NO

-- ask # outcome recorded in this test, key = `O=C(N/N=C/c1ccc(Cl)cc1)c1ccccc1Nc1ccccc1C(=O)N/N=C/c1ccc(Cl)cc1`
-- reply NO

-- ask # outcome recorded in this test, key = CC(=O)O[C@H]1C(=O)[C@@]2(C)[C@H]([C@H](OC(=O)c3ccccc3)[C@]3(O)C[C@H](OC(=O)[C@H](O)[C@@H](NC(=O)CC(C)(C)C)c4ccccc4)C(C)=C1C3(C)C)C1(OC(C)=O)CO[C@@H]1C[C@@H]2O (stereo partly drawn)
-- reply YES

-- ask # outcome recorded in this test, key = `CCN1CCc2sc3nc(S)n(C)c(=O)c3c2C1`
-- reply NO

The measurements presented in this section are drawn from ChEMBL document CHEMBL1201862.
